B1: library; a variant is named by its letters at N, in order (parent)
chain: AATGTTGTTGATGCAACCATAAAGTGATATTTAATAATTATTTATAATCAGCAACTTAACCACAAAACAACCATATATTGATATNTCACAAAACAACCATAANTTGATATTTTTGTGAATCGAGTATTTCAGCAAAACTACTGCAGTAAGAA

- Variants of: B1
- procedure text: relative integration efficiency (T-LR orientation) vs wild-type transposon end (log2 (normalized fold change)); transposon end mutated: left end; higher = more efficient transposition
- condition: with VchCAST RNA-guided transposition machinery (E. coli BL21(DE3) host, lacZ target)
Recorded relative integration efficiency (log2) values for a group of variants are listed next.
Please give the numeric answer without any surrounding text.

Check out these entries, answers already filled in.
| change | reading |
| --- | --- |
| CG A2T T3A G4C T5A | -0.131 |
| CG T28A | -0.399 |
| TA A16C G24T T32G A33C T76A T78A T84A C87A A102T T111C T113C | -0.59 |
| CG A107C | -0.569 |
| TA G24A T30A T76A T78A T84A C87A A96C T112G T113C | 0.461 |

Dear colleague, I am looking for the recorded relative integration efficiency (log2) of the following variant: CG T76A A77T T78A T79A
-0.702

What value of measured relative integration efficiency (log2) is listed for CG A15C A16C C17A C18A ?
-2.02
